# tested_target: human LPA1 (Homo sapiens)
# Sequence (Q92633 whole entry): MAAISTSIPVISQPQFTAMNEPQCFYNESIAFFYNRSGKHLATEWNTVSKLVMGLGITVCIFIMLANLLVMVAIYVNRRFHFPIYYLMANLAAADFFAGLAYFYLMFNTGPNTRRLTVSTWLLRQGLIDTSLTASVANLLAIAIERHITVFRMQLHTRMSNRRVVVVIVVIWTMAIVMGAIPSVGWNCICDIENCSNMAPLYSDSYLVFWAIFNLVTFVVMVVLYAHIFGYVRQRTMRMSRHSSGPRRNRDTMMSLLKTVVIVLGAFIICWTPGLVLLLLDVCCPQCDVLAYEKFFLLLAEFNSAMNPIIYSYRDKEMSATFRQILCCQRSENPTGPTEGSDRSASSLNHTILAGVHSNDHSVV
# assay_remarks: Test of LPA1 antagonism ([35S]GTPγS binding, membrane fraction of RH 7777 cells expressing human LPA1)
# condition: LPA 100 nM, read-out: IC50, concentration required for 50% inhibition of the binding of LPA1 and [35S]GTPγS
pIC50: −log10 of the molar value.
Entries and their measured pIC50 follow.

Recorded results for 2 molecules are shown here.
{"substance_smiles": "COc1cc(-c2sc(Cl)cc2NC(=O)O[C@H](C)c2ccccc2)ccc1-c1ccc(C2(C(=O)O)CC2)cc1", "tested_target": "human LPA1 (Homo sapiens)", "pIC50": "≥ 7.00"}
{"substance_smiles": "COc1cc(-c2sc(F)cc2NC(=O)O[C@H](C)c2ccccc2Cl)ccc1-c1ccc(C2(C(=O)O)CC2)cc1", "tested_target": "human LPA1 (Homo sapiens)", "pIC50": "≥ 7.00"}

Shifting focus to the molecule that follows.
Reported pIC50 of Cc1cscc1[C@@H](C)OC(=O)Nc1cc(F)sc1-c1ccc(-c2ccc(C3(C(=O)O)CC3)cc2)cc1 : ≥ 7.00
